The measurements presented in this section are drawn from ChEMBL document CHEMBL4038300.

pKi by entry:
# measurement-target: D(3) dopamine receptor (Homo sapiens, UniProt P35462)
# Sequence (P35462 whole entry): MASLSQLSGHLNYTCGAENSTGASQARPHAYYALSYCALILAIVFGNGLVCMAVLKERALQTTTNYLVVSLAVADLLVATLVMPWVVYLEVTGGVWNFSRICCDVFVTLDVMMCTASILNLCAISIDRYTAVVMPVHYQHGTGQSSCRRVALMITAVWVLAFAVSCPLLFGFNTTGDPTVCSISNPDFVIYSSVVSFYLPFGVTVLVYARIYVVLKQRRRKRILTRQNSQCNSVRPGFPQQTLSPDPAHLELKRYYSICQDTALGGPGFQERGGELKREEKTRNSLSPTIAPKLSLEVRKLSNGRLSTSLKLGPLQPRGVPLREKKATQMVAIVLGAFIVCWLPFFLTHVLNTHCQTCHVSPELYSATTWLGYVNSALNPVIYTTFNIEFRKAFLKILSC
pKi: −log10 of the molar value.

- compound: "CC(C)Oc1cccnc1N(C)C1CCN(Cc2ccc(I)cc2)CC1"
  measurement-target: "D(3) dopamine receptor (Homo sapiens, UniProt P35462)"
  comparative-sign: "="
  pKi: 6.84
- compound: "OCc1ccc(N2CCN(Cc3nc4ccccc4[nH]3)CC2)cc1Cl"
  measurement-target: "D(3) dopamine receptor (Homo sapiens, UniProt P35462)"
  comparative-sign: "<"
  pKi: 5.52
- compound: "Fc1ccc(OC[C@@H]2CC[C@H]3CN(c4ncc(F)cn4)CCN3C2)cc1"
  measurement-target: "D(3) dopamine receptor (Homo sapiens, UniProt P35462)"
  comparative-sign: "<"
  pKi: 5.70
- compound: "NS(=O)(=O)c1ccc(N2CCN(CC[C@@H]3OCCc4ccccc43)CC2)cc1 [SONEPIPRAZOLE]"
  measurement-target: "D(3) dopamine receptor (Homo sapiens, UniProt P35462)"
  comparative-sign: "<"
  pKi: 5.56
- compound: "Fc1ccc(N2CCN(CCC3OCCc4ccccc43)CC2)cc1 (stereo unspecified)"
  measurement-target: "D(3) dopamine receptor (Homo sapiens, UniProt P35462)"
  comparative-sign: "="
  pKi: 6.62
- compound: "c1ccc2c(c1)CC(CN1CCN(c3ccc4c(c3)OCCO4)CC1)C2"
  measurement-target: "D(3) dopamine receptor (Homo sapiens, UniProt P35462)"
  comparative-sign: "="
  pKi: 5.55

====

# measurement-target: 5-hydroxytryptamine receptor 1B (Homo sapiens, UniProt P28222)
# Sequence (P28222 whole entry): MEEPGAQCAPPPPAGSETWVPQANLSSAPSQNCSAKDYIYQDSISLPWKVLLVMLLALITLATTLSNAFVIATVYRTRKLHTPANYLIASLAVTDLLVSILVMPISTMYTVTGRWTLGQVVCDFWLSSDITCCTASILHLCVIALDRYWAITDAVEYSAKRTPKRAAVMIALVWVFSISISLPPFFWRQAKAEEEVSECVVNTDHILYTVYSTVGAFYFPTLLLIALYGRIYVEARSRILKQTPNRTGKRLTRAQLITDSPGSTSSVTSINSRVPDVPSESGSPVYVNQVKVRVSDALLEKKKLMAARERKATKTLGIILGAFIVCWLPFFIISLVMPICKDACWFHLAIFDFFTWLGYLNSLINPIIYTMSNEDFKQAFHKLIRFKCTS
pKi: −log10 of the molar value.

- smi: "Cc1ccc(N2CCN(Cc3nc4ccccc4[nH]3)CC2)cc1C"
  pKi: "< 5.70"

====

# measurement-target: D(1A) dopamine receptor (Homo sapiens, UniProt P21728)
# Sequence (P21728 whole entry): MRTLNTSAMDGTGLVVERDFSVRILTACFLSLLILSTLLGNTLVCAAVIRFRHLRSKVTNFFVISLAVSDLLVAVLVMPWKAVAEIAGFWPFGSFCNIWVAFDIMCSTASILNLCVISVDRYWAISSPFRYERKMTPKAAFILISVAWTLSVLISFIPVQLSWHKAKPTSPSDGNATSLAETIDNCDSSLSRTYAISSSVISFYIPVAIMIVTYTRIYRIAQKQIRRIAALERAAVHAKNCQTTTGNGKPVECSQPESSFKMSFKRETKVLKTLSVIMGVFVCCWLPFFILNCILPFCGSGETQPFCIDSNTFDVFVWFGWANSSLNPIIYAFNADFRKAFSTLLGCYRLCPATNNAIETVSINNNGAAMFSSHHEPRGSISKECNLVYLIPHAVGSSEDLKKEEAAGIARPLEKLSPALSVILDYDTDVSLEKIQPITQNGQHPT
# procedure-details: Inhibition of human dopamine D1 receptor
metric: Ki (µM)

- compound: "CC(C)Oc1cccnc1N(C)C1CCN(Cc2ccc(I)cc2)CC1"
  metric: "Ki"
  unit-string: "µM"
  comparative-sign: "="
  reported: 2.83
- compound: "c1ccc(CC[C@@H]2CN(Cc3nc4ccccc4[nH]3)CCO2)cc1"
  metric: "Ki"
  unit-string: "µM"
  comparative-sign: ">"
  reported: 100
- compound: "Clc1ccc(N2CCN(Cc3cc4ccccn4n3)CC2)cc1"
  metric: "Ki"
  unit-string: "µM"
  comparative-sign: "="
  reported: 5.5
- compound: "Fc1ccc(N2CCN(CCC3OCCc4ccccc43)CC2)cc1 (configuration not stated)"
  metric: "Ki"
  unit-string: "µM"
  comparative-sign: "="
  reported: 0.411
- compound: "NS(=O)(=O)c1ccc(N2CCN(CC[C@@H]3OCCc4ccccc43)CC2)cc1 [SONEPIPRAZOLE]"
  metric: "Ki"
  unit-string: "µM"
  comparative-sign: ">"
  reported: 8.38
- compound: "c1ccc2c(c1)CC(CN1CCN(c3ccc4c(c3)OCCO4)CC1)C2"
  metric: "Ki"
  unit-string: "µM"
  comparative-sign: ">"
  reported: 3
- compound: "Cc1ccc(N2CCN(Cc3nc4ccccc4[nH]3)CC2)cc1C"
  metric: "Ki"
  unit-string: "µM"
  comparative-sign: ">"
  reported: 8

====

# measurement-target: Alpha-2A adrenergic receptor (Homo sapiens)
# Sequence (P08913 whole entry): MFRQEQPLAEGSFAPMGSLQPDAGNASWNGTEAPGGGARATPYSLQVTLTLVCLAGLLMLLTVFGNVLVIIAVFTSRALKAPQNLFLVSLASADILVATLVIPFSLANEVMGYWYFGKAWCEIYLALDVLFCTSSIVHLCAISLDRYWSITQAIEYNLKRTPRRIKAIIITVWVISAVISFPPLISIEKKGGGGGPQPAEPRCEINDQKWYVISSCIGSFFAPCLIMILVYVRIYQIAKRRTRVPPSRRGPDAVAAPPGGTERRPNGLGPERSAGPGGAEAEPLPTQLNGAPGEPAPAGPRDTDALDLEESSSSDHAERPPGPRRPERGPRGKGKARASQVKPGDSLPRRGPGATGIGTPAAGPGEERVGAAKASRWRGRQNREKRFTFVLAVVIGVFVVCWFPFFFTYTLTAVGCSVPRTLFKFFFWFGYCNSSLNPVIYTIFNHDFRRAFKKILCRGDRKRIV
pKi: −log10 of the molar value.
pKi by entry:
metric: pKi

- molecule: "NS(=O)(=O)c1ccc(N2CCN(CC[C@@H]3OCCc4ccccc43)CC2)cc1 [SONEPIPRAZOLE]"
  reported: "< 5.80"
- molecule: "OCc1ccc(N2CCN(Cc3nc4ccccc4[nH]3)CC2)cc1Cl"
  reported: "< 5.52"
- molecule: "Cc1ccc(N2CCN(Cc3nc4ccccc4[nH]3)CC2)cc1C"
  reported: "< 5.70"
